System: HCC-2998 colon
Assay: NCI tumour cell line growth inhibition, 48 h
Each record here notes measured TGI.

- Molecule: "O=C(NC(Nc1ccc(F)c(Cl)c1)(C(F)(F)F)C(F)(F)F)C(C(F)(F)F)C(F)(F)F"
  Target of assay: "HCC-2998 colon"
  TGI: "> 100 µM"
- Molecule: "CCOC(=O)C12CC1(C(=O)OCC)C1CCC2C1 (stereo not drawn)"
  Target of assay: "HCC-2998 colon"
  TGI: "> 100 µM"
- Molecule: "Cc1ccc(Nc2ccc(Nc3ccc(C)cc3)c3c2C(=O)c2c(O)ccc(O)c2C3=O)cc1"
  Target of assay: "HCC-2998 colon"
  TGI: "> 100 µM"
- Molecule: "Cn1c(=O)c2[nH]c(COc3ccc(C(C)(C)C)cc3)nc2n(C)c1=O"
  Target of assay: "HCC-2998 colon"
  TGI: "> 100 µM"
- Molecule: "Fc1ccc(-c2ncn(C3CCNCC3)c2-c2ccnc(Oc3cccc(F)c3)n2)cc1"
  Target of assay: "HCC-2998 colon"
  TGI: "> 25 µM"
- Molecule: "Cc1nc(C(N)=S)sc1C(=O)/C=C/c1cccc(O)c1"
  Target of assay: "HCC-2998 colon"
  TGI: "> 100 µM"
- Molecule: "N#Cc1c(-c2ccc(Cl)cc2)c(C#N)c(=O)n(NS(=O)(=O)c2ccccc2)c1-c1ccccc1"
  Target of assay: "HCC-2998 colon"
  TGI: "> 25 µM"
- Molecule: "COc1cc([C@H]2Oc3c(c(O)cc4oc(-c5ccccc5)cc(=O)c34)O[C@@H]2CO)ccc1O"
  Target of assay: "HCC-2998 colon"
  TGI: "> 100 µM"
- Molecule: "C=C(C)[C@H]1CC/C(C)=C/CCC(C)C(=O)CC/C(CO)=C\\[C@@H]1O (stereo partly drawn)"
  Target of assay: "HCC-2998 colon"
  TGI: "> 100 µM"
- Molecule: "O=C1C2=C(c3ccccc31)C(c1ccccc1Cl)N1C(=O)CSC1=N2 (stereo not drawn)"
  Target of assay: "HCC-2998 colon"
  TGI: "> 100 µM"
- Molecule: "C[C@@H]1CC[C@@]2(OC1)O[C@H]1C[C@H]3[C@@H]4CC=C5C[C@@H](O[C@@H]6O[C@H](CO)[C@@H](O[C@@H]7O[C@@H](CO)[C@H](O)[C@H]7O)[C@H](O)[C@H]6O[C@@H]6O[C@@H](C)[C@H](O)[C@@H](O)[C@H]6O)CC[C@]5(C)[C@H]4CC[C@]3(C)[C@H]1[C@@H]2C"
  Target of assay: "HCC-2998 colon"
  TGI: "3.1 µM"
- Molecule: "CC1(C)OCN(c2ccc(Cl)cc2)Cn2c1nc1ccccc12"
  Target of assay: "HCC-2998 colon"
  TGI: "> 80.9 µM"
- Molecule: "COC1=C(OC)CCC(/C(C#N)=C/c2ccc(OC)c(OC)c2)=C1"
  Target of assay: "HCC-2998 colon"
  TGI: "> 100 µM"
- Molecule: "COc1ccc(/C=C2\\N=C3SC=C(N)N3C2=O)cc1"
  Target of assay: "HCC-2998 colon"
  TGI: "3.28 µM"
- Molecule: "NC(=O)N(O)c1cccc(Br)c1"
  Target of assay: "HCC-2998 colon"
  TGI: "> 100 µM"
- Molecule: "O=C(/C=C/c1ccco1)Nc1ncc(Cc2ccc(F)cc2)s1"
  Target of assay: "HCC-2998 colon"
  TGI: "> 100 µM"
- Molecule: "COC/C=C\\[C@@]1(O)CCCC[C@@H]1CC(OC)OC"
  Target of assay: "HCC-2998 colon"
  TGI: "> 100 µM"
- Molecule: "COc1ccc(C(=O)C=C2NCCN2)cc1"
  Target of assay: "HCC-2998 colon"
  TGI: "> 100 µM"
- Molecule: "Cn1ccnc1C(=O)/C=C/c1ccc(C(=O)Nc2nc3ccccc3[nH]2)cc1"
  Target of assay: "HCC-2998 colon"
  TGI: "> 25 µM"
- Molecule: "COc1ccc(NC(=O)C(=O)C2NC(=S)NC2=O)c(OC)c1 (stereo not drawn)"
  Target of assay: "HCC-2998 colon"
  TGI: "> 100 µM"
- Molecule: "Clc1nc2c(-c3cccs3)ncnc2n1Cc1ccccc1"
  Target of assay: "HCC-2998 colon"
  TGI: "9.84 µM"
- Molecule: "CC(C)(C)C=C=C(C(C)(C)C)P(=O)(O)O"
  Target of assay: "HCC-2998 colon"
  TGI: "> 100 µM"
- Molecule: "Cc1nc2c(-c3ccccc3)[nH]c(C)c2c(=O)o1"
  Target of assay: "HCC-2998 colon"
  TGI: "> 100 µM"

* * *

System: A549 NSCLC
Assay: NCI tumour cell line growth inhibition, 48 h
Each record here notes measured TGI.

- Compound: "CC(C)[Si]1(C(C)C)OCC2OC(n3ccc(=O)[nH]c3=O)C(O)(CO)C2O[Si](C(C)C)(C(C)C)O1 (stereo not given)"
  Target of assay: "A549 NSCLC"
  Measurement units: "µM"
  Reading qualifier: "="
  TGI: 27.9
- Compound: "COc1ccc2c3c(c(OCCCN(C)C)nc2c1)-c1ccc(Cl)cc1C3=O"
  Target of assay: "A549 NSCLC"
  Measurement units: "µM"
  Reading qualifier: "="
  TGI: 23.1
- Compound: "Oc1ccc2ccccc2c1N=Nc1ccccc1"
  Target of assay: "A549 NSCLC"
  Measurement units: "µM"
  Reading qualifier: ">"
  TGI: 100
- Compound: "CC1=C2C(c3ccccc3)(c3ccccc3)C3C=CC2(C=N3)N(C(=O)NC2CCCCC2)C1=O (stereo not given)"
  Target of assay: "A549 NSCLC"
  Measurement units: "µM"
  Reading qualifier: "="
  TGI: 32.8
- Compound: "C#Cc1ccc(NC(=O)c2ccc(/C=C/C(=O)c3nccn3C)cc2)cc1"
  Target of assay: "A549 NSCLC"
  Measurement units: "µM"
  Reading qualifier: "="
  TGI: 5.02
- Compound: "O=c1nc2cc(-c3ccccc3)[nH]c2nn1-c1c(Cl)cc(Cl)cc1Cl"
  Target of assay: "A549 NSCLC"
  Measurement units: "µM"
  Reading qualifier: "="
  TGI: 91.7
- Compound: "O=[N+]([O-])c1ccccc1C1N2CCCCC2[C@@H]2c3[nH]c4ccccc4c3CCN12 (stereo not given in full)"
  Target of assay: "A549 NSCLC"
  Measurement units: "µM"
  Reading qualifier: "="
  TGI: 35.8
- Compound: "CCOC(=O)c1nc2cc(C(F)(F)F)ccc2nc1Nc1ccc(Cl)c(Cl)c1"
  Target of assay: "A549 NSCLC"
  Measurement units: "µM"
  Reading qualifier: ">"
  TGI: 100
- Compound: "COc1cc(CC2c3cc(OC)c(OC)cc3CCN2C)c(Oc2cc3c(cc2OC)-c2c(OC)c(OC)c(OC)c4c2C(C3)N(C)CC4)cc1OC (stereo not given)"
  Target of assay: "A549 NSCLC"
  Measurement units: "µM"
  Reading qualifier: "="
  TGI: 30.6
- Compound: "COc1cc(Br)c(CC2=NCCc3cc(OC)c(OC)cc32)cc1OC"
  Target of assay: "A549 NSCLC"
  Measurement units: "µM"
  Reading qualifier: ">"
  TGI: 100
- Compound: "CC(=O)Oc1c(OC(C)=O)c(-c2ccc(O)c(O)c2)c(O)c(O)c1-c1ccc(O)cc1"
  Target of assay: "A549 NSCLC"
  Measurement units: "µM"
  Reading qualifier: ">"
  TGI: 100
- Compound: "C=C1C(C)C2C(Cc3ccccc3)NC(=O)C23C(OC(C)=O)/C=C/C(C)(O)CC(C)C/C=C/C3C1O (stereo not given)"
  Target of assay: "A549 NSCLC"
  Measurement units: "µM"
  Reading qualifier: ">"
  TGI: 100
- Compound: "Cc1ccc(S(=O)(=O)N/N=C2\\C=C[C@]3(CC2)C(=O)N(C)c2ccccc23)cc1"
  Target of assay: "A549 NSCLC"
  Measurement units: "µM"
  Reading qualifier: ">"
  TGI: 100
- Compound: "COc1ccc([C@H]2O[C@@H](CO)C[C@]2(O)c2ccc(OC)cc2)cc1"
  Target of assay: "A549 NSCLC"
  Measurement units: "µM"
  Reading qualifier: ">"
  TGI: 100
- Compound: "N#Cc1c(-c2ccc(Cl)cc2)c(C#N)c(=O)n(NS(=O)(=O)c2ccccc2)c1-c1ccccc1"
  Target of assay: "A549 NSCLC"
  Measurement units: "µM"
  Reading qualifier: ">"
  TGI: 25
- Compound: "CCN(CC)CCCNC(=O)Cc1ccccc1Nc1c(Cl)cccc1Cl"
  Target of assay: "A549 NSCLC"
  Measurement units: "µM"
  Reading qualifier: "="
  TGI: 36.2
- Compound: "CCCCCCCCCN1CCC(=O)C(C(=O)OC)C1 (stereo not given)"
  Target of assay: "A549 NSCLC"
  Measurement units: "µM"
  Reading qualifier: "="
  TGI: 30.7
- Compound: "CC1OC(O)C(O)C(O)C1O (stereo not given)"
  Target of assay: "A549 NSCLC"
  Measurement units: "µM"
  Reading qualifier: ">"
  TGI: 100
- Compound: "C[Se]C(=O)CC1=C2C=C(F)C=CC2/C(=C\\c2ccc(S(C)=O)cc2)C1C (stereo not given)"
  Target of assay: "A549 NSCLC"
  Measurement units: "µM"
  Reading qualifier: "="
  TGI: 2.66
- Compound: "Nc1c(C(=O)c2ccccc2)[nH]c(NCc2ccccc2)c1C(=S)Nc1ccccc1"
  Target of assay: "A549 NSCLC"
  Measurement units: "µM"
  Reading qualifier: ">"
  TGI: 100

Where these numbers come from: PubChem BioAssay (NCI)
